Data provenance is patent US10738062B2.

system: HCV replicon 1B; assay: Cell-based HCV replicon assay (Replicon Assay B), replicon 1B; parameters: species or system Hepatitis C virus; conditions: replicon RNA by real-time PCR, 3 days
Listed here: items and their measured EC50.
measuredQuantity: EC50 (pM)

* COC(=O)N[C@H](C(=O)N1CCC[C@H]1c1ncc(-c2ccc3c(c2)OC(c2ccc4c(c2)CCCO4)n2c-3cc3cc(-c4cnc([C@@H]5C[C@H]6C[C@H]6N5C(=O)[C@@H](NC(=O)OC)C(C)C)[nH]4)ccc32)[nH]1)C(C)C (single isomer, unassigned) | 3.1
* COC(=O)NC(C(=O)N1CCC[C@H]1c1ncc(-c2cc(F)c3c(c2)OC(c2ccc4c(c2)OCCC4)n2c-3cc3cc(-c4cnc([C@@H]5CCCN5C(=O)[C@@H](NC(=O)OC)C5CCOCC5)[nH]4)ccc32)[nH]1)C(C)(C)F (single isomer, unassigned) [Compound 89] | 3.1
* COC(=O)NC(C(=O)N1CCC[C@H]1c1ncc(-c2ccc3c(c2)cc2n3C(c3ccc4c(c3)OCCC4)Oc3cc(-c4cnc([C@@H]5CCCN5C(=O)[C@@H](NC(=O)OC)C(C)C)[nH]4)cc(F)c3-2)[nH]1)C1CCO[C@H](C)C1 (single isomer, unassigned) | 3.3
* COC(=O)NC(C(=O)N1CCC[C@H]1c1ncc(-c2ccc3c(c2)cc2n3C(c3ccc4c(c3)OC(C)CC4)Oc3cc(-c4cnc([C@@H]5CCCN5C(=O)[C@@H](NC(=O)OC)C(C)C)[nH]4)cc(F)c3-2)[nH]1)C1C[C@@H](C)O[C@@H](C)C1 (single isomer, unassigned) | 3.1
* COC(=O)NC(C(=O)N1[C@@H]2C[C@@H]2C[C@H]1c1ncc(-c2ccc3c(c2)cc2n3C(c3ccc4c(c3)OCCC4)Oc3cc(-c4cnc([C@@H]5CCCN5C(=O)[C@@H](NC(=O)OC)C(C)C)[nH]4)cc(F)c3-2)[nH]1)C1CCOC(C)(C)C1 (single isomer, unassigned) | 2.7
* COC(=O)N[C@H](C(=O)N1CCC[C@H]1c1ncc(-c2ccc3c(c2)cc2n3C(c3ccc4c(c3)OCCC4)Oc3cc(-c4cnc([C@@H]5CCCN5C(=O)[C@@H](NC(=O)OC)C5CCOCC5)[nH]4)cc(F)c3-2)[nH]1)C(C)C (single isomer, unassigned) | 3
* COC(=O)N[C@H](C(=O)N1CCC[C@H]1c1ncc(-c2cc(F)c3c(c2)OC(c2ccc4c(c2)OC(C)CC4)n2c-3cc3cc(-c4cnc([C@@H]5CCCN5C(=O)[C@@H](NC(=O)OC)C(C)C)[nH]4)ccc32)[nH]1)C(C)C (single isomer, unassigned) | 2.6

###

Listed here: items and their measured pEC50.
test system: HCV replicon 1A; experiment: Cell-based HCV replicon assay (Replicon Assay A), replicon 1A; design: species or system Hepatitis C virus; settings: replicon RNA by real time PCR, day 3
pEC50: −log10 of the molar value.
measuredQuantity: pEC50

- COC(=O)N[C@H](C(=O)N1CCC[C@H]1c1ncc(-c2cc(F)c3c(c2)OC(c2ccc4c(c2)CCCO4)n2c-3cc3cc(-c4cnc([C@@H]5CCCN5C(=O)[C@@H](NC(=O)OC)C5CCOCC5)[nH]4)ccc32)[nH]1)C(C)C (single isomer, unassigned): 11.68
- COC(=O)NC(C(=O)N1CCC[C@H]1c1ncc(-c2ccc3c(c2)cc2n3C(c3ccc4c(c3)OC(C)CC4)Oc3cc(-c4cnc([C@@H]5CCCN5C(=O)[C@@H](NC(=O)OC)C(C)C)[nH]4)cc(F)c3-2)[nH]1)C1CCOC(C)(C)C1 (single isomer, unassigned) [Compound 62]: 11.72
- COC(=O)N[C@H](C(=O)N1CCC[C@H]1c1ncc(-c2cc(F)c3c(c2)OC(c2ccc4c(c2)CCCO4)n2c-3cc3cc(-c4cnc([C@@H]5CCCN5C(=O)[C@@H](NC(=O)OC)C(C)C)[nH]4)ccc32)[nH]1)C(C)C (single isomer, unassigned): 11.80
- COC(=O)N[C@H](C(=O)N1CCC[C@H]1c1ncc(-c2cc(F)c3c(c2)OC(c2ccc4c(c2)OCCC4)n2c-3cc3cc(-c4cnc([C@@H]5C[C@@H](F)CN5C(=O)[C@@H](c5ccccc5)N5CCC5)[nH]4)ccc32)[nH]1)C(C)C (single isomer, unassigned) [Compound 38]: 11.28
